Where these numbers come from: the supplement of paper PMC8728848

biological target: Fuc(a1-2)[GalNAc(a1-3)]Gal(b1-4)[Fuc(a1-3)]GlcNAc; test: glycan array binding signal (z-score within array); higher = stronger binding; conditions: glycan notation: IUPAC condensed, linker removed
The sample as a whole holds a higher share of the strongest signals than the screen did.
Endpoint label: glycan array binding signal (z-score)
Give your answer as a number; write no unit.

Using the record for DrGal9 (Danio rerio) (protein) MAFYQQPPYYNPRIPFSGPIQGGLQDGKSIIISGRVLPGANRFHVNLQCGSHSEANVALHFNPRYEDTDYVVNNSYLNRTWGSEERKYESPFAQGQTFTLQILVAQDKYKISTNGRHFMDYKHRIPFTQVDTVAVEGMVEVNSVAFQNPAGFIPPQAGYAPQYAVPPGCGFPAFPSAPNYTIPHKTVMNGGLHPGKNIVINGVVNPNAKSIIFNLCYRSGIAFHYNPRFDENVVVRNTNQMEKWGAEERFGGLPFHKGQPFQVTISCNPQHYNVFVNGKQEHTYKHRYTKLNDIDILEICGDLQLTSVQA , report its glycan array binding signal (z-score).
-0.36

Using the record for EULS2 M4 (Oryza sativa) (protein) MVYCRANPNYAMTARNGAVVLAPANPKDEYQHWIKDMRWSTSIKDEEGYPAFALVNKATGQAIKHSLGQSHPVRLVPYNPEVMDESVLWTESRDVGNGFRCIRMVNNIYLNFDAFHGDKYHGGVRDGTDIVLWKWCEGDSLRWKIQPYYILEQKLISEEDLNSAVDHHHHHH , report its glycan array binding signal (z-score).
-0.416

Using the record for HMGB1 (Rattus norvegicus), P63159 (protein) MGKGDPKKPRGKMSSYAFFVQTCREEHKKKHPDASVNFSEFSKKCSERWKTMSAKEKGKFEDMAKADKARYEREMKTYIPPKGETKKKFKDPNAPKRPPSAFFLFCSEYRPKIKGEHPGLSIGDVAKKLGEMWNNTAADDKQPYEKKAAKLKEKYEKDIAAYRAKGKPDAAKKGVVKAEKSKKKKEEEDDEEDEEDEEEEEEEEDEDEEEDDDDE , report its glycan array binding signal (z-score).
-0.019

Using the record for CTMLA2 (Anopheles gambiae), Q7Q7F8 (protein) MNLMITILIAVITVVRGDLSVPKTVDDILQQNPCLCPCKPFEEKEYFIPISRTSDWFGAVAYCHSVGMELAEVLNEDEARAMGEVIAEEESDSDDEFYWIGANDLGVQGTYRWALAGRPVLYSQWAAGEPNHARGENGQQPAERCVAVAMDKYEWNDFQCTQQKPFICQQFRKH , report its glycan array binding signal (z-score).
0.192
